Experimental target: recombinant human Bcl-2-G101V protein (Homo sapiens (Human), UniProt P10415, G101V)
Method: Bcl-2-G101V TR-FRET Assay
Assay type: binding
Assay context: Bcl-2 G101V mutant, TR-FRET; read-out: Biochemical assay (IC50, nM) Bcl-2 G101V
# IC50 per record follows
State just the number; it will be interpreted in nM.

The examples below pair each entry with its known result.
compound="CC(C)c1ccccc1[C@H]1CN(C(C)C)CCN1C1CC2(CCN(c3ccc(C(=O)NS(=O)(=O)c4ccc(NC[C@H]5CC[C@](C)(O)CC5)c([N+](=O)[O-])c4)c(Oc4cnc5[nH]ccc5c4)c3)CC2)C1 (single isomer, unassigned) [Example 3b]" experimental_target="recombinant human Bcl-2-G101V protein (Homo sapiens (Human), UniProt P10415, G101V)" readout_label=IC50 observed_value=0.14
compound="COc1ccc(CN2CCN(C3CC4(CCN(c5ccc(C(=O)NS(=O)(=O)c6ccc(NCC7CCOCC7)c([N+](=O)[O-])c6)c(Oc6cnc7[nH]ccc7c6)c5)CC4)C3)[C@H](c3ccccc3C(C)C)C2)cc1 (single isomer, unassigned)" experimental_target="recombinant human Bcl-2-G101V protein (Homo sapiens (Human), UniProt P10415, G101V)" readout_label=IC50 observed_value=0.37
compound="CC(C)c1ccccc1C1CN(Cc2ccc(S(C)(=O)=O)cc2)CCN1C1CC2(CCN(c3ccc(C(=O)NS(=O)(=O)c4ccc(NC[C@H]5CC[C@](C)(O)CC5)c([N+](=O)[O-])c4)c(Oc4cnc5[nH]ccc5c4)c3)CC2)C1 (some centres unmarked)" experimental_target="recombinant human Bcl-2-G101V protein (Homo sapiens (Human), UniProt P10415, G101V)" readout_label=IC50 observed_value=0.29
compound="C#Cc1cc(CN2CCN(C3CC4(CCN(c5ccc(C(=O)NS(=O)(=O)c6ccc(NC[C@H]7CC[C@](C)(O)CC7)c([N+](=O)[O-])c6)c(Oc6cnc7[nH]ccc7c6)c5)CC4)C3)C(c3ccccc3C(C)C)C2)ccc1OC (some centres unmarked)" experimental_target="recombinant human Bcl-2-G101V protein (Homo sapiens (Human), UniProt P10415, G101V)" readout_label=IC50 observed_value=2.1
compound=COc1cc(CN2CCN(C3CC4(C3)CN(c3ccc(C(=O)NS(=O)(=O)c5ccc(NC[C@H]6CC[C@](C)(O)CC6)c([N+](=O)[O-])c5)c(Oc5cnc6[nH]cc(F)c6c5)c3)C4)[C@H](c3ccccc3C(C)C)C2)ccc1C(C)C experimental_target="recombinant human Bcl-2-G101V protein (Homo sapiens (Human), UniProt P10415, G101V)" readout_label=IC50 observed_value=4.9

query: Which IC50 value is on record for COc1ccc(CN2CCN(C3CC4(CCN(c5ccc(C(=O)NS(=O)(=O)c6ccc(NC[C@H]7CC[C@](C)(O)CC7)c([N+](=O)[O-])c6)c(Oc6cnc7[nH]ccc7c6)c5)CC4)C3)C(c3ccccc3C3CC3)C2)cc1 (some centres unmarked) ?
result: 0.47

query: // next record CC(C)c1ccccc1C1CN(S(C)(=O)=O)CCN1C1CC2(CCN(c3ccc(C(=O)NS(=O)(=O)c4ccc(NC[C@H]5CC[C@](C)(O)CC5)c([N+](=O)[O-])c4)c(Oc4cnc5[nH]ccc5c4)c3)CC2)C1 (some centres unmarked)
result: 1.6

query: // next record CC(C)c1ccccc1C1CN(Cc2cc(F)cc(F)c2)CCN1C1CC2(CCN(c3ccc(C(=O)NS(=O)(=O)c4ccc(NC[C@H]5CC[C@](C)(O)CC5)c([N+](=O)[O-])c4)c(Oc4cnc5[nH]ccc5c4)c3)CC2)C1 (some centres unmarked)
result: 1.6
